Examples of binders with documented End (RU) follow.
# ASSAY TARGET: T1, recombinant human IL4Rα-his protein (in house made) (human, UniProt P24394 26-232, limits assumed)
# T1 construct: also called Human IL4Ra-his
# EXPERIMENTAL DETAILS: SPR (Biacore), antibody captured, IL4Rα-his flowed
Quick reminder: number only, in RU, skip the unit.

Illustrative cases are given below, each with its answer.
# BINDER, READOUT TYPE, OBSERVED VALUE
rows = [
    ("huC2C1A1A1-V6 (antibody, human IgG4 S228P, kappa, V domains shown, Humanized, human IgG4/kappa) VH: EVQLVESGGGLVQPGGSLRLSCAASGFTFSTYGMSWVRQSPDKRLEWVSTINSNGGSTSYPDSVKGRFTISRDNAKNTLYLQMRSLRAEDTAVYYCARFFRFRNAMDYWGQGTLVTVSS VL: DIQMTQSPSSLSASVGQRVTITCRTSENIYSYLAWYQQKQGKPPRFLIYNAKTLAEGVPSRFSGSGSGTEFTLTITSLQAEDFGVYYCQHYYGPPTWTFGPGTKLEIKR", "End (RU)", 50.6),
    ("huC2C1A1A1-V2 (antibody, human IgG4 S228P, kappa, V domains shown, Humanized, human IgG4/kappa) VH: EVQLVESGGGLVQPGGSLRLSCAASGFTFSTYGMSWVRQAPGKGLVWVSTINSNGGSTSYPDSVKGRFTISRDNAKNTLYLQMNSLRAEDTAVYYCARFFRFRNAMDYWGQGTLVTVSS VL: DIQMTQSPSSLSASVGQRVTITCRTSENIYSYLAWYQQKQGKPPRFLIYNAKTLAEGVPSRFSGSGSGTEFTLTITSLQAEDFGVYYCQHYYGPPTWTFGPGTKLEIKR", "End (RU)", 50.3),
]

Note down End (RU) recorded for huC2C1A1A1-V8 (antibody, human IgG4 S228P, kappa, V domains shown, Humanized, human IgG4/kappa) VH: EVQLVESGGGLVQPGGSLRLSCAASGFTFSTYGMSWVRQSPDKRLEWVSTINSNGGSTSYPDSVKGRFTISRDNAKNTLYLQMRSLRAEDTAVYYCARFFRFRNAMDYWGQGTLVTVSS VL: DIQMTQSPSSLSASVGDRVTITCRTSENIYSYLAWYQQKPGKAPKFLIYNAKTLAEGVPSRFSGSGSGTDFTLTISSLQPEDFATYYCQHYYGPPTWTFGQGTKVEIKR
64.4
